System Name: T1, cyno PRLR ECD-his6 protein (cyno)
T1 chain: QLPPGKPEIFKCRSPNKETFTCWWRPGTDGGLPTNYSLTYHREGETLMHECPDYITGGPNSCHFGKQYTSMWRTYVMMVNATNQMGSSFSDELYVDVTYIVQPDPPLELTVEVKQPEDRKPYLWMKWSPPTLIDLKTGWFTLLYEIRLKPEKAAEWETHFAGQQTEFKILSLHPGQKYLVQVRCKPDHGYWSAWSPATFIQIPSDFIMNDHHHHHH
Protocol Text: ELISA on ECD
Reported Property: pEC50
Scale note: pEC50 = -log10(concentration in M).

Requested field: pEC50. Item: Ab18 (antibody, human IgG1, kappa, V domains shown, humanized from Ab6; G1; also called Ab1 HC.1a and Ab1 LC.1) VH: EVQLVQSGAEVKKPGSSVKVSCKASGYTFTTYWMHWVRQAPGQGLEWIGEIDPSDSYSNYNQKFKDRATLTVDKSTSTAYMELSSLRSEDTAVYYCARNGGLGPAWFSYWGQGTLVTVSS VL: DIQMTQSPSSVSASVGDRVTITCKASQYVGTAVAWYQQKPGKAPKLLIYSASNRYTGVPSRFSGSGSGTDFTLTISSLQPEDFATYYCQQYSSYPWTFGGGTKVEIKR
9.96
